Reported CC50 at 72 h by item:
Test: In vitro cytotoxicity evaluation (MTT)
Type: cell-based
Conditions: human
Just the number in µM, nothing appended.

* CCCOc1nc(C(Cl)(Cl)Cl)nc2ccccc12 [Molecule 28, 4-Propoxy-2-Trichloromethylquinazoline] | 54.8
* CCOc1nc(C(Cl)(Cl)Cl)nc2ccccc12 [Molecule 27, 4-Ethoxy-2-Trichloromethylquinazoline] | 47.1

Read the next record carefully.
Task: Can you share its CC50 at 72 h? I mean this molecule: COc1ccc(C(=O)Nc2nc(C(Cl)(Cl)Cl)nc3ccccc23)cc1 [Molecule 16]
Result: 27.7

====

Test system: K1 P. falciparum strain
Test: In vitro antiplasmodial evaluation (SYBR Green I fluorescence-based method)
Assay type: cell-based
Settings: multi-resistant K1 P. falciparum strain, 72 h incubation; read-out: PfK1 EC50
Measured EC50 by item

// worked examples, EC50 included
* O=C(Nc1nc(C(Cl)(Cl)Cl)nc2ccccc12)c1ccc(F)cc1 | 1340 nM
* CCCCC(=O)Nc1nc(C(Cl)(Cl)Cl)nc2ccccc12 | 1600 nM

Task: Which EC50 is listed for `ClC(Cl)(Cl)c1nc(OCCN2CCCC2)c2ccccc2n1` ?
Result: 1300 nM

====

Assay: In vitro cytotoxicity evaluation (MTT)
Assay type: cell-based
Conditions: human
assay.endpoint: CC50 at 72 h (µM)
Report as a plain number; the unit µM is understood.

- O=C(c1ccc(Cl)cc1)N(C(=O)c1ccc(Cl)cc1)c1nc(C(Cl)(Cl)Cl)nc2ccccc12 [Molecule 3]: 20
- O=C(Nc1nc(C(Cl)(Cl)Cl)nc2ccccc12)c1ccc([N+](=O)[O-])cc1 [Molecule 6]: 22.1
- ClC(Cl)(Cl)c1nc(OCCN2CCCC2)c2ccccc2n1 [Molecule 44]: 43.7
- COCCOc1nc(C(Cl)(Cl)Cl)nc2ccccc12 [Molecule 35]: 53.2

Please turn your attention to the following entry.
Task: Param item = C#CC(C)Oc1nc(C(Cl)(Cl)Cl)nc2ccccc12 (centres unmarked) [Molecule 32] ; retrieve measured CC50 at 72 h.
Result: 45

====

Let's look at some molecules and their measured CC50 at 72 h.
Assay: In vitro cytotoxicity evaluation (MTT)
Assay type: cell-based
Details: human
Report only the number, with the unit µM understood.

• C#CC(Oc1nc(C(Cl)(Cl)Cl)nc2ccccc12)C(C)C (stereo not drawn) [Molecule 33] = 30.6

Task: Given the entry CC(C)(C)C(=O)Nc1nc(C(Cl)(Cl)Cl)nc2ccccc12 [Molecule 23] , report its measured CC50 at 72 h.
Result: 34.9

Task: Another molecule to look at: ClC(Cl)(Cl)c1nc(OCCN2CCCCC2)c2ccccc2n1 [Molecule 43]
Result: 23.4

Task: Next record, please: FCCOc1nc(C(Cl)(Cl)Cl)nc2ccccc12 [Molecule 39]
Result: 29.5

Task: For ClCCCCOc1nc(C(Cl)(Cl)Cl)nc2ccccc12 [Molecule 38] then?
Result: 50.5

Task: Try CCCCC(=O)Nc1nc(C(Cl)(Cl)Cl)nc2ccccc12 [Molecule 24] next.
Result: 42.3

Task: // same read-out, input: O=C(Nc1nc(C(Cl)(Cl)Cl)nc2ccccc12)c1ccncc1 [Molecule 19]
Result: 22.8

====

Assay: In vitro cytotoxicity evaluation (MTT)
Format: cell-based
Conditions: human
assay.endpoint: CC50 at 72 h (µM)
Hi! Could you send only the number? It should be in µM, unit omitted.

* O=C(Nc1nc(C(Cl)(Cl)Cl)nc2ccccc12)c1ccccc1 | 24.2
* CC(=O)Nc1nc(C(Cl)(Cl)Cl)nc2ccccc12 | 31.2
* O=C(Nc1nc(C(Cl)(Cl)Cl)nc2ccccc12)c1ccccc1Cl | 27.3

Note: attention shifts to another entry.
Task: Entry under review: `N#Cc1ccc(C(=O)Nc2nc(C(Cl)(Cl)Cl)nc3ccccc23)cc1` . Reported CC50 at 72 h?
Result: 31.4

====

assay.endpoint: melting point (°C)
Entry rule: numbers only, all in °C.

Some solved cases for reference:
* O=C(Nc1nc(C(Cl)(Cl)Cl)nc2ccccc12)c1cccc(F)c1 [Molecule 10] | 152
* O=C(Nc1nc(C(Cl)(Cl)Cl)nc2ccccc12)C1CCCCC1 [Molecule 25] | 214
* O=C(Nc1nc(C(Cl)(Cl)Cl)nc2ccccc12)c1ccccn1 [Molecule 17] | 214
* ClCCCOc1nc(C(Cl)(Cl)Cl)nc2ccccc12 [Molecule 37] | 77
* CCCCC(=O)Nc1nc(C(Cl)(Cl)Cl)nc2ccccc12 [Molecule 24] | 136

Now take the following compound into account.
Task: Need melting point, item O=C(Nc1nc(C(Cl)(Cl)Cl)nc2ccccc12)c1ccc(F)cc1 [Molecule 9]
Result: 166

====

Experiment: In vitro cytotoxicity evaluation (MTT)
Type: cell-based
Settings: human
assay.endpoint: CC50 at 72 h (µM)
Provide the reading as a plain figure in µM.

Below, 2 compounds whose answers are already recorded.
* COc1nc(C(Cl)(Cl)Cl)nc2ccccc12 | 39.3
* O=C(Nc1nc(C(Cl)(Cl)Cl)nc2ccccc12)c1ccc(Cl)cc1 | 21

Task: CC50 at 72 h lookup needed for `CCN(CC)CCOc1nc(C(Cl)(Cl)Cl)nc2ccccc12` , thanks.
Result: 32.3

====

Listing of recorded melting point by entry.
Expressed in °C, but write only the number.

// below: answered compounds
* COc1ccc(C(=O)Nc2nc(C(F)(F)F)nc3ccccc23)cc1 | 190
* CCOc1nc(C(Cl)(Cl)Cl)nc2ccccc12 | 73
* C#CCOc1nc(C(Cl)(Cl)Cl)nc2ccccc12 | 62

Task: Would you kindly share the measured melting point for `CCCOc1nc(C(Cl)(Cl)Cl)nc2ccccc12` ?
Result: 39

Task: For `ClC(Cl)(Cl)c1nc(OCCBr)c2ccccc2n1` then?
Result: 100

Task: Follow-up entry: `O=C(Nc1nc(C(Cl)(Cl)Cl)nc2ccccc12)c1ccccc1`
Result: 183

Task: Also need `FCCOc1nc(C(Cl)(Cl)Cl)nc2ccccc12` , thanks.
Result: 73

Task: What do you get for C#CC(Oc1nc(C(Cl)(Cl)Cl)nc2ccccc12)C(C)C (centres unmarked) ?
Result: 96

Numbers sourced from paper PMC7504092.
